Taken from patent US20030229005A1.

As shown below, each of these binders has a reported Selectivity v. Coll-3 value.
- Assayed System: gelatinase B (UniProt P14780 107-707, limits assumed)
- Sequence (P14780 107-707 limits assumed): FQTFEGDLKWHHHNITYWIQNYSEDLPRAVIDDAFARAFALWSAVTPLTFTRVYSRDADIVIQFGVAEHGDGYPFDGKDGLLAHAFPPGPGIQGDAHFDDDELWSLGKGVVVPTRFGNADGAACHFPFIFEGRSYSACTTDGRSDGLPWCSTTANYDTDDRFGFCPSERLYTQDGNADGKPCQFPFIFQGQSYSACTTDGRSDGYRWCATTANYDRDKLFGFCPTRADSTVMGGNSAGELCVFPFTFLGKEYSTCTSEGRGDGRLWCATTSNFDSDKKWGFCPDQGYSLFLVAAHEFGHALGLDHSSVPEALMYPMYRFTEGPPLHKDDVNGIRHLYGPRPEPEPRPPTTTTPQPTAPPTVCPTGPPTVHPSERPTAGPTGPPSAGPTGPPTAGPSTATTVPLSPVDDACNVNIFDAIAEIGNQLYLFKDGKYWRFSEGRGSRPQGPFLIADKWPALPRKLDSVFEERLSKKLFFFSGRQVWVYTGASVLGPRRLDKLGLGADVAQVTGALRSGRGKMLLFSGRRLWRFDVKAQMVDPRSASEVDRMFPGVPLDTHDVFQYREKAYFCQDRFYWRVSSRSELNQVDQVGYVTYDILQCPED
- Experiment: cell-based or functional assay
*1 amine or outer side, *2 acyl side, *3 side chain or, on linkers, in order; H or OH if unused. [ ]: non-standard residue; d: D form. The star is where a group is joined. Dnp = O=[N+]([O-])c1ccc(*)c([N+](=O)[O-])c1; C(Me) = CSC[C@H](N[*:1])C(=O)[*:2]
The answer is to be given in unitless; state only the numeric part.

Dnp-GPAPFRG[C(Me)]-NH2 (SMILES CSC[C@H](NC(=O)CNC(=O)[C@H](CCCNC(=N)N)NC(=O)[C@H](Cc1ccccc1)NC(=O)[C@@H]1CCCN1C(=O)[C@H](C)NC(=O)[C@@H]1CCCN1C(=O)CNc1ccc([N+](=O)[O-])cc1[N+](=O)[O-])C(N)=O) [Dnp-GPAPFRGC(Me)-NH2]: 14

With those in mind, consider the next binder.
-- ask Tell us which Selectivity v. Coll-3 value is on record for Dnp-GPSPLHG[C(Me)]-NH2 (SMILES CSC[C@H](NC(=O)CNC(=O)[C@H](Cc1c[nH]cn1)NC(=O)[C@H](CC(C)C)NC(=O)[C@@H]1CCCN1C(=O)[C@H](CO)NC(=O)[C@@H]1CCCN1C(=O)CNc1ccc([N+](=O)[O-])cc1[N+](=O)[O-])C(N)=O) [Dnp-GPSPLHGC(Me)-NH2]
-- reply 7
